# System: Hepatitis B virus
# test-summary: Antiviral activity against HBV infected in human HepG2(2.2.15) cells assessed as inhibition of viral DNA replication at 20 uM after 6 days by RT-PCR method relative to control
# Type: functional
# condition-summary: HepG2 2.2.15, 144 h
quantity: inhibition at 20 µM (%)
Quick reminder: number only, in %, skip the unit.

Query :: Please give the documented inhibition at 20 µM of O=C(N[C@H](CO)Cc1ccccc1)/C(NC(=O)c1ccccc1)=C(/Br)c1ccccc1Cl
Result :: 80.2

Query :: Please give the documented inhibition at 20 µM of O=C(N[C@H](CO)Cc1ccccc1)/C(NC(=O)c1ccccc1)=C(/Br)c1ccccc1
Result :: 77.6

Query :: Please give the documented inhibition at 20 µM of CN(C)CCOc1ccc(C[C@H](NC(=O)c2ccccc2)C(=O)N[C@H](CO)Cc2ccccc2)cc1
Result :: 69.2

Query :: Please give the documented inhibition at 20 µM of CN(C)CCOc1ccc(C[C@H](NC(=O)c2ccccc2)C(=O)N2CCCC2)cc1
Result :: 47.6

Query :: Please give the documented inhibition at 20 µM of O=C(N[C@H](CO)Cc1ccccc1)/C(NC(=O)c1ccccc1)=C(/Br)c1ccc(Br)cc1
Result :: 73.1

Query :: Please give the documented inhibition at 20 µM of CC(=O)OC[C@H](Cc1ccccc1)NC(=O)[C@H](Cc1ccccc1)NC(=O)c1ccccc1
Result :: 60.6

Query :: Please give the documented inhibition at 20 µM of Nc1ccn([C@@H]2CS[C@H](CO)O2)c(=O)n1
Result :: 92.7

Query :: Please give the documented inhibition at 20 µM of O=C(N[C@H](CO)Cc1ccccc1)/C(=C\c1ccccc1Br)NC(=O)c1ccccc1
Result :: 26.2

Query :: Please give the documented inhibition at 20 µM of N#Cc1ccc(/C(Br)=C(/NC(=O)c2ccccc2)C(=O)N[C@H](CO)Cc2ccccc2)cc1
Result :: 75.1

* * *

# test-summary: Selectivity index, ratio of CC50 for human HepG2(2.2.15) cells to IC50 for antiviral activity against HBV infected in human HepG2(2.2.15) cells assessed as inhibition of viral DNA replication
# Type: toxicity, cell-based
# condition-summary: read-out: Ratio CC50/IC50
quantity: selectivity ratio
// no unit, no text: just the number

Query :: Please give the documented selectivity ratio of CN(C)CCOc1ccc(/C(Br)=C(/NC(=O)c2ccccc2)C(=O)N[C@H](CO)Cc2ccccc2)cc1
Result :: 153

Query :: Please give the documented selectivity ratio of N#Cc1ccc(/C(Br)=C(/NC(=O)c2ccccc2)C(=O)N[C@H](CO)Cc2ccccc2)cc1
Result :: 18.2

Query :: Please give the documented selectivity ratio of O=C(N[C@H](CO)Cc1ccccc1)/C(NC(=O)c1ccccc1)=C(/Br)c1ccc(O)cc1
Result :: 19.5

Query :: Please give the documented selectivity ratio of O=C(N[C@H](CO)Cc1ccccc1)/C(NC(=O)c1ccccc1)=C(/Br)c1ccccc1Cl
Result :: 35.5

Query :: Please give the documented selectivity ratio of O=C(N[C@H](CO)Cc1ccccc1)/C(NC(=O)c1ccccc1F)=C(/Br)c1ccccc1
Result :: 41

* * *

# System: Hepatitis B virus
# test-summary: Antiviral activity against HBV infected in human HepG2(2.2.15) cells assessed as inhibition of viral DNA replication at 20 uM after 6 days by RT-PCR method relative to control
# Assay type: functional
# condition-summary: HepG2 2.2.15, 144 h
quantity: inhibition at 20 µM (%)
Quick reminder: number only, in %, skip the unit.

Query :: Please give the documented inhibition at 20 µM of O=C(N[C@@H](Cc1ccccc1)C(=O)N1CCCCC1)c1ccccc1
Result :: 42.3

Query :: Please give the documented inhibition at 20 µM of O=C(N[C@H](CO)Cc1ccccc1)/C(NC(=O)c1ccccc1)=C(/Br)c1ccccc1Br
Result :: 76.6

Query :: Please give the documented inhibition at 20 µM of CN(C)CCOc1ccc(C[C@H](NC(=O)c2ccccc2)C(=O)N2CCCCC2)cc1
Result :: 51.6

Query :: Please give the documented inhibition at 20 µM of O=C(N[C@H](CO)Cc1ccccc1)/C(=C\c1ccc(O)cc1)NC(=O)c1ccccc1
Result :: 24.9

Query :: Please give the documented inhibition at 20 µM of Cc1cccc(/C(Br)=C(/NC(=O)c2ccccc2)C(=O)N[C@H](CO)Cc2ccccc2)c1
Result :: 87.6

Query :: Please give the documented inhibition at 20 µM of O=C(N[C@@H](Cc1ccc(O)cc1)C(=O)N1CCCCC1)c1ccccc1
Result :: 19.5

Query :: Please give the documented inhibition at 20 µM of CN(C)CCOc1ccc(C[C@H](NC(=O)c2ccccc2)C(=O)N2CCOCC2)cc1
Result :: 24.9

Query :: Please give the documented inhibition at 20 µM of CCN(CC)C(=O)[C@H](Cc1ccc(OCCN(C)C)cc1)NC(=O)c1ccccc1
Result :: 17.5

Query :: Please give the documented inhibition at 20 µM of N#Cc1ccc(/C=C(/NC(=O)c2ccccc2)C(=O)N[C@H](CO)Cc2ccccc2)cc1
Result :: 10.2

* * *

# Test system: Hepatitis B virus
# test-summary: Antiviral activity against HBV infected in human HepG2(2.2.15) cells assessed as inhibition of viral DNA replication at 20 uM after 6 days by RT-PCR method relative to control
# Assay type: functional
# condition-summary: HepG2 2.2.15, 144 h
Provide the recorded inhibition at 20 µM for the entries that follow.
Quick reminder: number only, in %, skip the unit.

Query :: Please give the documented inhibition at 20 µM of O=C(N[C@H](CO)Cc1ccccc1)/C(=C\c1ccccc1Cl)NC(=O)c1ccccc1
Result :: 29.8

Query :: Please give the documented inhibition at 20 µM of Cc1cccc(/C=C(/NC(=O)c2ccccc2)C(=O)N[C@H](CO)Cc2ccccc2)c1
Result :: 15.8

Query :: Please give the documented inhibition at 20 µM of CN(C)CCOc1ccc(/C=C(/NC(=O)c2ccccc2)C(=O)N[C@H](CO)Cc2ccccc2)cc1
Result :: 37.5

Query :: Please give the documented inhibition at 20 µM of O=C(N[C@H](CO)Cc1ccccc1)/C(=C\c1ccccc1)NC(=O)c1ccccc1F
Result :: 51.4

Query :: Please give the documented inhibition at 20 µM of O=C(N[C@H](CO)Cc1ccccc1)/C(NC(=O)c1ccccc1F)=C(/Br)c1ccccc1
Result :: 76.4

* * *

# System: Hepatitis B virus
# test-summary: Antiviral activity against HBV infected in human HepG2(2.2.15) cells assessed as inhibition of viral DNA replication after 6 days by RT-PCR method
# Assay type: functional, organism-based
# condition-summary: HepG2 2.2.15, 144 h
Provide the recorded IC50 for the entries that follow.
Quick reminder: number only, in µM, skip the unit.

Query :: Please give the documented IC50 of N#Cc1ccc(/C(Br)=C(/NC(=O)c2ccccc2)C(=O)N[C@H](CO)Cc2ccccc2)cc1
Result :: 5.5

Query :: Please give the documented IC50 of O=C(N[C@H](CO)Cc1ccccc1)/C(NC(=O)c1ccccc1)=C(/Br)c1ccc(Br)cc1
Result :: 4.45

Query :: Please give the documented IC50 of O=C(N[C@H](CO)Cc1ccccc1)/C(NC(=O)c1ccccc1)=C(/Br)c1ccc(O)cc1
Result :: 2

Query :: Please give the documented IC50 of O=C(N[C@H](CO)Cc1ccccc1)/C(NC(=O)c1ccccc1)=C(/Br)c1ccccc1Br
Result :: 7.26

* * *

# Tested on: Hepatitis B virus
# test-summary: Antiviral activity against HBV infected in human HepG2(2.2.15) cells assessed as inhibition of viral DNA replication after 6 days by RT-PCR method
# Assay type: functional, organism-based
# condition-summary: HepG2 2.2.15, 144 h
quantity: pIC50
Schema: pIC50 number; meaning minus log10 of the concentration expressed in molar units.

Query :: Please give the documented pIC50 of CN(C)CCOc1ccc(/C(Br)=C(/NC(=O)c2ccccc2)C(=O)N[C@H](CO)Cc2ccccc2)cc1
Result :: 6.85

Query :: Please give the documented pIC50 of O=C(N[C@H](CO)Cc1ccccc1)/C(NC(=O)c1ccccc1)=C(/Br)c1ccccc1Cl
Result :: 5.73

Query :: Please give the documented pIC50 of Cc1cccc(/C(Br)=C(/NC(=O)c2ccccc2)C(=O)N[C@H](CO)Cc2ccccc2)c1
Result :: 6.34

Query :: Please give the documented pIC50 of O=C(N[C@H](CO)Cc1ccccc1)/C(NC(=O)c1ccccc1)=C(/Br)c1ccccc1
Result :: 5.41

Query :: Please give the documented pIC50 of O=C(N[C@H](CO)Cc1ccccc1)/C(NC(=O)c1ccccc1F)=C(/Br)c1ccccc1
Result :: 5.61

* * *

# experimental-target: Protein P (Duck hepatitis B virus (strain Germany/DHBV-3) (DHBV))
# Sequence (P0C691 whole entry): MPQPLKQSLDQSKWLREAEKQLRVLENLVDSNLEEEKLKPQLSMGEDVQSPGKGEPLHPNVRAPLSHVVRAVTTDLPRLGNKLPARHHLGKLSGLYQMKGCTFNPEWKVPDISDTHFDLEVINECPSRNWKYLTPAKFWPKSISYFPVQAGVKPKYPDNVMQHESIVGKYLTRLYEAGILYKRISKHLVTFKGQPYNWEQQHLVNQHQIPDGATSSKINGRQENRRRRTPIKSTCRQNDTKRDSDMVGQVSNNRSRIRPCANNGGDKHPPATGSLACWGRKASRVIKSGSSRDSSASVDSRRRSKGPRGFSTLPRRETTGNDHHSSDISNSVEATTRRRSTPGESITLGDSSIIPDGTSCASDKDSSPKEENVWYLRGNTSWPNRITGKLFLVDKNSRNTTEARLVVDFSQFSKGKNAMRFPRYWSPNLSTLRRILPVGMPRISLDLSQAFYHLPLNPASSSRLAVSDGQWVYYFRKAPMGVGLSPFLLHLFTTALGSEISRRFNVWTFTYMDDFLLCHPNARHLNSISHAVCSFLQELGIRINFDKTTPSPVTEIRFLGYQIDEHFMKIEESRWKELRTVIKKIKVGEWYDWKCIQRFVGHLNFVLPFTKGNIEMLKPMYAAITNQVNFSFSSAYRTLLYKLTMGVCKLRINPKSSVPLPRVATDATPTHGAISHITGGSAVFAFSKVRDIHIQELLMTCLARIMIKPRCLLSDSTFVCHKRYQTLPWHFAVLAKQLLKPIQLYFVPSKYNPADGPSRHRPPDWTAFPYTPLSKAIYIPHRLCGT
# test-summary: Inhibition of DHBV reverse transcriptase polymerase activity expressed in reticulocyte system assessed as reduction in elongation of viral minus strand DNA in presence of [alpha32P]DNA
quantity: EC50 (µM)
Quick reminder: number only, in µM, skip the unit.

Query :: Please give the documented EC50 of Cc1cccc(/C(Br)=C(/NC(=O)c2ccccc2)C(=O)N[C@H](CO)Cc2ccccc2)c1
Result :: 34.2
